Source of measurements: ChEMBL document CHEMBL1201862

// IC50 lookup, one value per entry
molecular target: Sentrin-specific protease 7 (Homo sapiens, UniProt Q9BQF6); assay type: functional;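 note: Luminescence-based dose-response confirmation of ultra-high-throughput screening hits, measuring inhibition of SENP7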
Sequence (Q9BQF6 whole entry): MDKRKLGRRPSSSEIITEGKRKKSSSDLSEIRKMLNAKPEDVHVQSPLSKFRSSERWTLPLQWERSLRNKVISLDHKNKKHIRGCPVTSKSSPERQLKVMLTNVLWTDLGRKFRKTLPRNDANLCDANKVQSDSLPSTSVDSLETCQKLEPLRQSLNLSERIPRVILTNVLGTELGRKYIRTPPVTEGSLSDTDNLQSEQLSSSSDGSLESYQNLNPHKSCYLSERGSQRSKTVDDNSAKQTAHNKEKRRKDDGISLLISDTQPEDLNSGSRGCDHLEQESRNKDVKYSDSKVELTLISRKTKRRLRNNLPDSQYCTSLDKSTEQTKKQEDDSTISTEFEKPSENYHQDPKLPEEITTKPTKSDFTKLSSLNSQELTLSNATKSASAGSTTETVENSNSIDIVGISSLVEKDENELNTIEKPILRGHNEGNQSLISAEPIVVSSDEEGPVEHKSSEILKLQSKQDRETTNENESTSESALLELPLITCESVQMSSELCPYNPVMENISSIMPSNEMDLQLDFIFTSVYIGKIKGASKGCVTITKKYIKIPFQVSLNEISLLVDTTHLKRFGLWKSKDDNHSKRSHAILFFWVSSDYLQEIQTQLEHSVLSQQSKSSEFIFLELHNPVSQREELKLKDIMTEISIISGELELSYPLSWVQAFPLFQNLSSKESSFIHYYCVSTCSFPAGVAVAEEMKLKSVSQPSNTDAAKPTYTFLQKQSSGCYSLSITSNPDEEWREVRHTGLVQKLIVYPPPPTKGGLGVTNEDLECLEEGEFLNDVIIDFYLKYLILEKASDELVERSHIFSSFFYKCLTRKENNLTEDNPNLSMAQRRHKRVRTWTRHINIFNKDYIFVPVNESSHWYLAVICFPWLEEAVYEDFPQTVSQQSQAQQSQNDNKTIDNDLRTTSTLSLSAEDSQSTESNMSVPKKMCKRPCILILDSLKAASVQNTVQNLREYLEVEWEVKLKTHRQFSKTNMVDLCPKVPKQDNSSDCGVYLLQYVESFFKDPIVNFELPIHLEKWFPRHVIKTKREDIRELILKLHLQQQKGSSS
Active and inactive are the calls of the source.

# example entries with known answers
| structure smiles string | result |
| --- | --- |
| COc1cccc(C(=O)Oc2ccc3ccc(O)cc3c2)c1 | 7.37 µM (active) |
| c1ccc(Cn2nc(-c3ccccc3)nc2-c2ccccc2)cc1 | 8.63 µM (active) |
| O=C(CCCN1C(=O)/C(=C/c2ccccc2Cl)SC1=S)NCCCN1CCOCC1 | 14.8 µM (active) |
| Oc1nc(Nc2ccc(F)cc2)cc2ccccc12 | 7.05 µM (active) |
| O=C(NC1=C(Nc2ccc(F)cc2)C(=O)c2ccccc2C1=O)c1ccc(Cl)cc1 | 24.3 µM (active) |
| CN(C)c1cc(N/N=C\c2ccccc2)nc(N(C)C)n1 | 77.6 µM (active) |
| O=C(Nc1cc(Cl)cc(Cl)c1)c1cccc(OC(F)F)c1 | 11.8 µM (active) |
| COc1ccc(C(=O)CNc2ccccc2Br)cc1 | 6.34 µM (active) |
| O=C(Nc1ccc(Br)cc1)Nc1ccccc1Cl | 7.21 µM (active) |

Lookup: Can you share its IC50? I mean this molecule: O=C(Nc1nc2c(Cl)cccc2s1)c1ccc([N+](=O)[O-])o1
Found: 17.2 µM (active)

---

Quick reference for CC50 among some compounds
experiment: THP-1 cell cytotoxicity, dose response, cytotoxicity control for non-replicating M. tuberculosis project (AID 489025); assay type: functional
The source made the active and inactive calls.

| structure smiles string | measured property | result |
| --- | --- | --- |
| CC(=O)Oc1c(-c2ccc(Br)o2)oc2ccccc2c1=O | CC50 | > 40 µM (active) |

Lookup: Return reported CC50; argument: O=C(N/N=C\c1ccc([N+](=O)[O-])s1)c1cncc(Br)c1
Found: 5.8 µM (active)

Lookup: Param item = O=C1CCC/C(=N/Nc2ccc(Cl)cc2)C1 ; retrieve measured CC50.
Found: > 40 µM (active)

Lookup: Which CC50 reading was recorded for the compound Cc1cccc(OCCN2CSC(=S)N(C)C2)c1 ?
Found: 11.8 µM (active)

---

biological target: Zinc finger protein mex-5 (Caenorhabditis elegans); test: potency of MEX-5 RNA-binding blockers – biochemical, C. elegans, fluorescence polarization, dose response (AID 1960)
Sequence (Q9XUB2 whole entry): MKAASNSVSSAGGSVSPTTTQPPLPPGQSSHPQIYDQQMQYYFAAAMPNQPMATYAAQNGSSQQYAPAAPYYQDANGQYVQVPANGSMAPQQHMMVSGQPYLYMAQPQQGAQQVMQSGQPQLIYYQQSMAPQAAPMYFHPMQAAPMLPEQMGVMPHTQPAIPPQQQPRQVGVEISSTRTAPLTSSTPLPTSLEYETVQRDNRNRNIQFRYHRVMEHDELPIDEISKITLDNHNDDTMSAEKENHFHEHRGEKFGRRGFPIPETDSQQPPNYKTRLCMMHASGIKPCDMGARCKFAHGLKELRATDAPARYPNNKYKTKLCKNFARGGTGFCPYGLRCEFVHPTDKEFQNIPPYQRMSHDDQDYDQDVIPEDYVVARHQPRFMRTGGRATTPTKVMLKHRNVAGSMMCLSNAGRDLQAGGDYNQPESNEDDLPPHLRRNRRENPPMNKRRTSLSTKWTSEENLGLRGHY
Calls of active or inactive are those of the source.
As shown below, each of these molecules has a reported EC50 value.

Recorded EC50, per entry:
| molecule | EC50 |
| --- | --- |
| CCCN1CC=C2C(C#N)=C(N)C(C#N)(C#N)C(c3cc(OC)ccc3OC)C2C1 (stereo not given) | 25.5 µM (active) |
| Cc1cccc(C)c1NC(=O)NN=C1CCCCC1 | > 300 µM (not active) |
| Cc1c(C(=O)O)cccc1-n1c(C)cc(/C=C2\C(=O)NC(=O)N(c3ccc4c(c3)OCO4)C2=O)c1C | > 300 µM (not active) |
| CSc1nnc(SCc2nc3sc(C(=O)O)c(C)c3c(=O)[nH]2)s1 | 30.6 µM (active) |

Lab note: next molecule to report on.
Lookup: Form field: EC50 recorded for COc1ccc2c(c1)C1C=CCC1C(c1cc3c(cc1Br)OCO3)N2 (stereo not given) with Zinc finger protein mex-5 (Caenorhabditis elegans) (enter value)
Found: 47.9 µM (active)

---

Readings of AC50 for the listed compounds
experiment: intracellular Trypanosoma cruzi inhibitors in host cells – cell-based, plate reader, cherry-pick samples, set 3, dose response (AID 651818); type: functional;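 note: compounds incubated with infected cells for about four days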
Activity calls are given as the source filed them.

These solved cases illustrate the format of a correct answer.
| structure smiles string | measured property | result |
| --- | --- | --- |
| C[C@@H]1CN([C@H](C)CO)C(=O)Cc2cc(NC(=O)Nc3ccc4c(c3)OCO4)ccc2O[C@H]1CN(C)Cc1ccc(Oc2ccccc2)cc1 | AC50 | 3.08 µM (active) |
| C[C@@H]1CN([C@H](C)CO)C(=O)Cc2cc(NS(=O)(=O)c3ccc(F)cc3)ccc2O[C@@H]1CN(C)S(=O)(=O)c1ccccc1 | AC50 | 5.74 µM (active) |
| C[C@H]1CN([C@@H](C)CO)C(=O)c2cc(NC(=O)Nc3ccc(C(F)(F)F)cc3)ccc2O[C@@H]1CN(C)Cc1ccc2c(c1)OCO2 | AC50 | 4.02 µM (active) |

Okay, next one:
Lookup: Item under review: C[C@H](CO)N1C[C@H](C)[C@H](CN(C)Cc2ccc(C(F)(F)F)cc2)Oc2ccc(NC(=O)Cc3cn(C)c4ccccc34)cc2C1=O . Reported AC50?
Found: 4.35 µM (active)

---

target: Troponin, cardiac muscle (Homo sapiens, UniProt P19429+P45379+P63316); assay: Fluorescence-based biochemical high throughput dose response assay for activators of the calcium sensitivity of cardiac Regulated Thin Filaments (RTF). [Related pubchem assays (depositor defined):AID493008, AID493018, AID504382, AID504383]; assay type: protein-complex assay
The source made the active and inactive calls.
Just give me one of these, please: active, inactive

// known answers, use as guide
| compound | class label |
| --- | --- |
| CN(C)c1ccc(/N=C/c2nc(-c3ccccc3)oc2O)cc1 | active |
| Cc1cc(C)c2nc(NC(=O)C3CCCO3)sc2c1 (centres undefined) | inactive |
| O=C1c2ccsc2SCCN1Cc1ccc(F)cc1 | inactive |

As a next step, examine the compound that follows.
Lookup: Per the assay record, what outcome was assigned to Cc1cc(N2CCCC2)ccc1C=C(C#N)C#N ?
Found: active

---

target: Aurora kinase A (Homo sapiens, UniProt O14965); assay type: functional;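 note: value from the Navigating the Kinome kinase panel profiling, panel entry STK6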
Sequence (O14965 whole entry): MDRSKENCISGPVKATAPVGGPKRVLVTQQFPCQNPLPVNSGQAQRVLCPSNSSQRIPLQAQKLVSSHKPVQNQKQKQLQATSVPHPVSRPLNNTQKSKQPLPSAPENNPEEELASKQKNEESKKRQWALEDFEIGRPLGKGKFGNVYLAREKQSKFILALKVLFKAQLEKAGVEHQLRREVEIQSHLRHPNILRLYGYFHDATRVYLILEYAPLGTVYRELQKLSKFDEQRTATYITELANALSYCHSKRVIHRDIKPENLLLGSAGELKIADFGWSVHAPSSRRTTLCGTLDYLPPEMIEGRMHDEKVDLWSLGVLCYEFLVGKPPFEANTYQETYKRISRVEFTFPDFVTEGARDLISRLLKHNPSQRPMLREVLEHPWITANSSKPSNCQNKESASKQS
Activity calls are given as the source filed them.
Just give me one of these, please: Y (active), N (inactive)

Reference set, count: 3
| compound | study target | class label |
| --- | --- | --- |
| Cc1ccc(NC(=O)Nc2ccc(-c3c(Cc4cccnc4)sc4ncnc(N)c34)cc2)cc1 | Aurora kinase A (Homo sapiens, UniProt O14965) | Y |
| O=C1Cc2cc(-c3ccccc3)cnc2N1 | Aurora kinase A (Homo sapiens, UniProt O14965) | Y |
| NC(COc1cncc(-c2ccc3c(c2)C(=Cc2ccc[nH]2)C(=O)N3)c1)Cc1ccccc1 (centres undefined) | Aurora kinase A (Homo sapiens, UniProt O14965) | Y |

Alright, here's another compound for you.
Lookup: Could you please tell me the result logged for O=C1Nc2cc(-c3ccc(O)cc3)ccc2C1=Cc1ccc[nH]1 in this assay?
Found: N

---

target: Large T antigen (Simian virus 40, UniProt P03070); assay type: functional, Betapolyomavirus macacae;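 note: Confirmatory-stage PubChem screen for compounds that inhibit SV40 T antigen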
Sequence (P03070 whole entry): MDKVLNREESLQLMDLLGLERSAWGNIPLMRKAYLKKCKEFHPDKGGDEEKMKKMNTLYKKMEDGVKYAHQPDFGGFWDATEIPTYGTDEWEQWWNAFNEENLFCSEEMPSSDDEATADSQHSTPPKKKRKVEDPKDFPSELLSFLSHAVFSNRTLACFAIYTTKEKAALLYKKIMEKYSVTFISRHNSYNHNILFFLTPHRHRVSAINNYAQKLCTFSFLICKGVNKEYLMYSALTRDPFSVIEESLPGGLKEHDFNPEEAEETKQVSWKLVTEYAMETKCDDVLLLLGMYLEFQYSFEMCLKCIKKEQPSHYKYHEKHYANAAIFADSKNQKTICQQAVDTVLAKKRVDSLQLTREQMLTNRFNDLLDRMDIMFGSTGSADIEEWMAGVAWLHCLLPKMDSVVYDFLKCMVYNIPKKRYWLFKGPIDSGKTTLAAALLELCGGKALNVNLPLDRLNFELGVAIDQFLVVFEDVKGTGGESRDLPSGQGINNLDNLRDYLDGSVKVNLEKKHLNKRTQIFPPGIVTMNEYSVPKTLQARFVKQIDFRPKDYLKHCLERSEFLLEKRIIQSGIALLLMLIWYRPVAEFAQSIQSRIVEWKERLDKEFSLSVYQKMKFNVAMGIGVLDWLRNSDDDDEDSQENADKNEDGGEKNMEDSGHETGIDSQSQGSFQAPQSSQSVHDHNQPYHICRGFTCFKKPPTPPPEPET
The source made the active and inactive calls.
Quick reference for IC50 among some compounds

# count of solved cases: 2
| compound | result |
| --- | --- |
| COc1cc(/C=C(\C#N)C(=O)N2CCCCC2)ccc1O | 13 µM (active) |
| CCOc1ccc(NCc2nnc(SCC(=O)Nc3cc(C)on3)n2-c2ccc(OC)cc2)cc1 | 30.1 µM (active) |

Lookup: Returns the measured IC50 for the input compound. Input: COc1cc(/C=N/NC(=O)C2=NNC(=O)C2C)ccc1O (stereo unspecified)
Found: 26.7 µM (active)

Lookup: # input compound: COc1ccc(-c2cc(=O)oc3c(O)c(O)ccc23)cc1 ; wanted: its IC50
Found: 8.81 µM (active)

Lookup: Look up IC50 for this compound: COc1cc(/C=N/NC(=O)CNC(=O)c2ccco2)ccc1O
Found: 6.31 µM (active)

Lookup: # IC50 lookup, item Oc1ccc(N2CCN(C(=S)NCCc3ccccc3)CC2)cc1
Found: 8.73 µM (active)

---

target: Histone-lysine N-methyltransferase NSD2 (Homo sapiens, UniProt O96028); type: biochemical
Sequence (O96028 whole entry): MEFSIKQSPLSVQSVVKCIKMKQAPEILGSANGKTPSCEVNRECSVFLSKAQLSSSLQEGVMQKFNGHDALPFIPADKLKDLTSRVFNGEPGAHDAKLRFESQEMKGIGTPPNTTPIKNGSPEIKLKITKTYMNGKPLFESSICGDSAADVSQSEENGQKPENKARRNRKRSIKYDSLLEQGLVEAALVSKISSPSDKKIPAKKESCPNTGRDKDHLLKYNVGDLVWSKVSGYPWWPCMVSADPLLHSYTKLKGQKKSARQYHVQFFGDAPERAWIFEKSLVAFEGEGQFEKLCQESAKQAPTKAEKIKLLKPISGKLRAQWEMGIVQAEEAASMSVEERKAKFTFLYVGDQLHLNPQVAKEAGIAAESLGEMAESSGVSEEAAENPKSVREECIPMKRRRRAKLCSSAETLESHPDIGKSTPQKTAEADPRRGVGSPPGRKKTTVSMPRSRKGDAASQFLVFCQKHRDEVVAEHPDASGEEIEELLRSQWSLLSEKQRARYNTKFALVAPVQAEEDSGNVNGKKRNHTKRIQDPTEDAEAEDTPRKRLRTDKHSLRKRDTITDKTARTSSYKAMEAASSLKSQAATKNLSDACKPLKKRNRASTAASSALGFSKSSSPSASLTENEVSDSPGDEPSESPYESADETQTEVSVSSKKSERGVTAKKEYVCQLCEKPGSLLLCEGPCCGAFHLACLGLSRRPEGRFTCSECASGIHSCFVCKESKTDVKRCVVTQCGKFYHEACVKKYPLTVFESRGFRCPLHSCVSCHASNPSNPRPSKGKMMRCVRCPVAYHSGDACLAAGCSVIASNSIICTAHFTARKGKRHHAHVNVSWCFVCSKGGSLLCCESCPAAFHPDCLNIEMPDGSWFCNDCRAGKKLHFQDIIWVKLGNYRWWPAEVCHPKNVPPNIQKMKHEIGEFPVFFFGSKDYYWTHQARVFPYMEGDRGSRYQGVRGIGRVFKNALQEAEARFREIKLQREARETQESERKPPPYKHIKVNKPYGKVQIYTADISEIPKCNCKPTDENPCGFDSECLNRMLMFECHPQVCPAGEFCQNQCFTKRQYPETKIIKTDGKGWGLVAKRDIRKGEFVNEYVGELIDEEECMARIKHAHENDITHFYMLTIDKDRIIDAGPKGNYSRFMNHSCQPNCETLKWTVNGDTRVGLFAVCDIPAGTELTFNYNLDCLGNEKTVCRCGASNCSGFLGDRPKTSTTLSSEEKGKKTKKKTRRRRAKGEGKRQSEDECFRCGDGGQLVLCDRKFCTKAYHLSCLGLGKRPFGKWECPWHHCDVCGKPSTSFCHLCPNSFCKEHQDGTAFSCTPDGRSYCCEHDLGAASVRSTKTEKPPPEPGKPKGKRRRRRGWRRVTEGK
Activity calls are given as the source filed them.
Your answer must be one of the following: active, inactive

| compound | study target | class label |
| --- | --- | --- |
| CN(C)c1cc(N/N=C\c2ccccc2)nc(N(C)C)n1 | Histone-lysine N-methyltransferase NSD2 (Homo sapiens, UniProt O96028) | active |
| CC1CCCC(C)N1/N=C/c1ccc(O)c(O)c1 (stereo not drawn) | Histone-lysine N-methyltransferase NSD2 (Homo sapiens, UniProt O96028) | active |

Lookup: What did this assay record as the result for O=C(Cc1csc(N2CCOCC2)n1)N/N=C/c1ccc(O)c(O)c1O ?
Found: inactive

Lookup: Please indicate how the test categorized CCN(CC)CCOc1ccc2c(c1)C(=NNC(=O)c1ccccn1)c1cc(OCCN(CC)CC)ccc1-2 .
Found: active

Lookup: Query: recorded result category for CCCCn1c(N)c(N(CCC(C)C)C(=O)COC(=O)c2ccc([N+](=O)[O-])s2)c(=O)[nH]c1=O in this test
Found: active

Lookup: So what was the verdict on N#Cc1c(SCC(=O)Nc2nncs2)sc2c(O)cc(=O)[nH]c12 in this test?
Found: active

Lookup: Fill in: this test's call for Nc1ccc(Nc2ccccc2)c(S(=O)(=O)O)c1 is ___
Found: active

Lookup: Hello, I am checking results. What call was entered for CCN(CC)CCNC(=O)c1ccc(CS(=O)(=O)c2ccccc2C)o1 ?
Found: inactive
